The following compounds are listed with their measured Hill coefficient [n] values.
# measurement.target: recombinant human Wip1 (1–420) (Homo sapiens)
# Sequence (O15297 1-420): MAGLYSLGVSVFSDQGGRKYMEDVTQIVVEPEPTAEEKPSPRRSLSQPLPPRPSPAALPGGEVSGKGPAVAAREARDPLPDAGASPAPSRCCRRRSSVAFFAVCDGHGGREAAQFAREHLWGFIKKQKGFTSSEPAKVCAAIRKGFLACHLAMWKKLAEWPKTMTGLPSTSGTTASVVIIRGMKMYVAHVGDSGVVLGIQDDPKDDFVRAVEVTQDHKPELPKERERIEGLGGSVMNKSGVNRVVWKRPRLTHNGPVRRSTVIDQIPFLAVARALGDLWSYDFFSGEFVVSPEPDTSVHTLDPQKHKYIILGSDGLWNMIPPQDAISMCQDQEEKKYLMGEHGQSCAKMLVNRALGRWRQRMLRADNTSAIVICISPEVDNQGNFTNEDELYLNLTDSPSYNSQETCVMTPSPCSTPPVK
# test.name: Wip1 phosphatase activity inhibition assay
# Assay type: biochemical
# assay.context: variable slope logistic fit of Wip1 inhibition curve
// return a plain number; no unit text

Below are worked cases with known answers.
In [3]: df
Out[3]:
                                   compound                        measurement_target  number
0  O=C(Nc1ccc(OP(=O)(O)O)cc1)c1ccc(NCc2ccc(F)cc2)c(CC2CCCCC2)c1 [Compound 32a]  recombinant human Wip1 (1–420) (Homo sapiens)     3.4
1  COc1cc(OC)cc(-c2ccc(CNc3ccc(C(=O)Nc4cccc(OP(=O)(O)O)c4)cc3CC3CCCCC3)cc2)c1 [Compound 22j]  recombinant human Wip1 (1–420) (Homo sapiens)     1.8
2  O=C(Nc1cccc(OP(=O)(O)O)c1)c1ccc(NC(=O)c2cccc(CNc3cccc(Cl)c3)c2)c(CC2CCCCC2)c1 [Compound 48b]  recombinant human Wip1 (1–420) (Homo sapiens)     2.3

[ask] Consider the compound O=C(O)c1cccc(CNc2ccccc2CC2CCCCC2)c1 [Compound 14] and give its measured Hill coefficient [n].
[reply] 1.9

[ask] # get_value(readout='Hill coefficient [n]', item= O=C(Nc1cccc(Cl)c1)c1ccc(CNc2ccc(C(=O)Nc3cccc(OP(=O)(O)O)c3)cc2CC2CCCCC2)cc1 [Compound 40a] )
[reply] 1.9

[ask] GET /values?readout=Hill coefficient [n]&item= O=C(Nc1cccc(OP(=O)(O)O)c1)c1ccc(NCc2cc3ccccc3o2)c(CC2CCCCC2)c1 [Compound 22m]
[reply] 1.5

###

# measurement.target: recombinant human Wip1 (1–420) (Homo sapiens)
# Sequence (O15297 1-420): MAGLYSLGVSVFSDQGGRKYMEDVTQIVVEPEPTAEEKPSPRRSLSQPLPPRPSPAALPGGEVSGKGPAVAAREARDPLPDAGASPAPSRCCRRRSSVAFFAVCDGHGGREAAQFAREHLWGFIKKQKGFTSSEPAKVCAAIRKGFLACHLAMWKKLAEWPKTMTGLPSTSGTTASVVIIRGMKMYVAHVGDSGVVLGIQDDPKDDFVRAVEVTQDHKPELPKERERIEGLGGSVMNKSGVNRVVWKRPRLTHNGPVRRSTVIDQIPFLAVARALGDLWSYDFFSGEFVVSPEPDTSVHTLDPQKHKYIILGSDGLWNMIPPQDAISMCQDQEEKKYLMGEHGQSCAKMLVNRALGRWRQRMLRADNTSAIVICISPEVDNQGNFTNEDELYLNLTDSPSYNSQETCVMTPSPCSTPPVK
# test.name: Wip1 phosphatase activity inhibition assay
# Type: biochemical
# assay.context: variable slope logistic fit of Wip1 inhibition curve
Kindly return T if reported Hill coefficient [n] is no lower than 2; return F if it is lower.

Below are worked cases with known answers.
In [3]: df
Out[3]:
                                   compound                        measurement_target  assigned_class
0  O=C(Nc1ccc2c(c1)OCO2)c1cccc(CNc2ccc(C(=O)Nc3cccc(OP(=O)(O)O)c3)cc2CC2CCCCC2)c1 [Compound 40e]  recombinant human Wip1 (1–420) (Homo sapiens)               T
1  O=C(Nc1cccc(OP(=O)(O)O)c1)c1ccc(NCc2ccc(-c3cccc(Cl)c3)cc2)c(CC2CCCCC2)c1 [Compound 22k]  recombinant human Wip1 (1–420) (Homo sapiens)               F
2  O=C(Nc1cccc(OP(=O)(O)O)c1)c1ccc(NCc2cccc(F)c2)c(CC2CCCCC2)c1 [Compound 22f]  recombinant human Wip1 (1–420) (Homo sapiens)               T

[ask] Confirm if Hill coefficient [n] reported for the compound COc1cccc(CNc2ccc(C(=O)Nc3cccc(OP(=O)(O)O)c3)cc2CC2CCCCC2)c1 [Compound 22e] is 2 or above.
[reply] F

[ask] Determine whether measured Hill coefficient [n] meets or exceeds 2 for Nc1ccc(C(=O)Nc2cccc(OP(=O)(O)O)c2)cc1CC1CCCCC1 [Compound 22a]
[reply] F

[ask] Exam item: decide whether the reported Hill coefficient [n] for COC(=O)c1ccc(NCc2cccc(C(=O)O)c2)c(CCC2CCCCC2)c1 [Compound 17] is at least 2.
[reply] T

[ask] Could you please find out whether O=C(Nc1cccc(Cl)c1)c1cccc(CNc2ccc(C(=O)Nc3cccc(OP(=O)(O)O)c3)cc2CCC2CCCCC2)c1 [Compound 40c] has Hill coefficient [n] that meets 2 or exceeds it?
[reply] F

[ask] Quick check: does O=C(Nc1cccc(OP(=O)(O)O)c1)c1ccc(NCc2cccnc2)c(CC2CCCCC2)c1 [Compound 22n] have Hill coefficient [n] greater than or equal to 2?
[reply] F

[ask] Does O=C(Nc1cccc(Cl)c1)c1cccc(CNc2ccc(C(=O)Nc3cccc(OP(=O)(O)O)c3)cc2C2CC3CCC2C3)c1 (stereo not drawn) [Compound 40d] have a reported Hill coefficient [n] of at least 2?
[reply] T

###

# measurement.target: recombinant human Wip1 (1–420) (Homo sapiens)
# test.name: Wip1 phosphatase activity inhibition assay
endpoint: pIC50
// pIC50 here means minus log10 of the molar concentration (mol/L)

[ask] Quick one: pIC50 for O=C(Nc1cccc(OP(=O)(O)O)c1)c1ccc(NCCCc2ccccc2)c(CC2CCCCC2)c1 [Compound 22c] ?
[reply] 3.78

###

# measurement.target: recombinant human Wip1 (1–420) (Homo sapiens, UniProt O15297)
# test.name: Wip1 phosphatase activity inhibition assay
# Format: biochemical
endpoint: Wip1 inhibitory activity (in words)

>>> df
                                   molecule             result
0  O=C(O)c1cccc(CNc2ccccc2CC2CCCCC2)c1 [Compound 14]  modest inhibition
1  O=C(O)c1cccc(CNc2ccccc2CCC2CCCCC2)c1 [Compound 16]  modest inhibition

###

Catalogue of Hill coefficient [n] values
# measurement.target: recombinant human Wip1 (1–420) (Homo sapiens, UniProt O15297)
# test.name: Wip1 phosphatase activity inhibition assay
# Assay type: biochemical
# assay.context: variable slope logistic fit of Wip1 inhibition curve
Lab note: write the figure by itself, no unit.

Below: 5 molecules and their reported Hill coefficient [n].
>>> print(df.to_string())
                                   molecule  number
0  O=C(Nc1cccc(Cl)c1)c1cccc(CNc2ccc(C(=O)Nc3cccc(OP(=O)(O)O)c3)cc2CC2CCCCC2)c1 [Compound 40b]     1.4
1  O=C(Nc1cccc(F)c1)c1cccc(CNc2ccc(C(=O)Nc3cccc(OP(=O)(O)O)c3)cc2CC2CCCCC2)c1 [Compound 40f]     3.6
2  O=C(Nc1cccc(OP(=O)(O)O)c1)c1ccc(NCc2ccc(-c3cccc(F)c3)cc2)c(CC2CCCCC2)c1 [Compound 22l]     1.7
3  COc1ccc(CNc2ccc(C(=O)Nc3cccc(OP(=O)(O)O)c3)cc2CC2CCCCC2)cc1 [Compound 22d]     2.0
4  O=C(Nc1cccc(OP(=O)(O)O)c1)c1ccc(NCc2ccc(F)cc2)c(Cc2ccccc2)c1 [Compound 29a]     1.7

Let's switch to this molecule now.
[ask] Name the reported Hill coefficient [n] value associated with the molecule COC(=O)c1ccc(NCc2cccc(C(=O)O)c2)c(CC2CCCCC2)c1 [Compound 15]
[reply] 2.8

The measured values listed here are drawn from paper PMC9664485.
